# testedOn: T1, CTLA-4-hFc (immunogen A; hFc-labeled CTLA-4 extracellular domain protein) (human, UniProt P16410 36-161)
# T1 construct: range 36-161; Made in HEK293 cells, purified on protein A; also called CLTA-4-hFc; CTLA-4 protein; not shown: human IgG Fc fragment (hFc) of the pCpC vector
# T1 sequence (looked up): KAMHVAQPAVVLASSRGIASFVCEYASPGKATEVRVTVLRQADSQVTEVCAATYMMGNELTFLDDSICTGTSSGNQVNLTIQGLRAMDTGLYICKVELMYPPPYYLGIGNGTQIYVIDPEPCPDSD
# protocolNotes: ELISA, coated CTLA-4-hFc, competitor biotin-B7.1-hFc
For each of the binders below, state its Inhibition rate (%) at 7.4 nM.
Numbers only, in %.

Each of the following entries comes with a recorded value; kindly state Inhibition rate (%) at 7.4 nM for each.
1. 97A8D1 (chimeric antibody purified from hybridoma supernatant) (antibody, V domains shown, also called mAb49; mAb049) VH: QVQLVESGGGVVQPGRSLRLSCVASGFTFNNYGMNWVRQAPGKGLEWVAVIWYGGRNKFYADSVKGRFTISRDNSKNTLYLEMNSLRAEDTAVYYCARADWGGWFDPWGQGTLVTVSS VL: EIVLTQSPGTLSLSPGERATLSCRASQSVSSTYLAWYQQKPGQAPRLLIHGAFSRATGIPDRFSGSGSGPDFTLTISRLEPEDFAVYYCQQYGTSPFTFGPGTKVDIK
2. 92C8B6 (chimeric antibody purified from hybridoma supernatant) (antibody, V domains shown, also called mAb42; mAb042) VH: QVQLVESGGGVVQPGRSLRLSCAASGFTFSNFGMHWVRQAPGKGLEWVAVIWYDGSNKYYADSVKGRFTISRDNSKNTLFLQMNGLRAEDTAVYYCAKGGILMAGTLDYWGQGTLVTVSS VL: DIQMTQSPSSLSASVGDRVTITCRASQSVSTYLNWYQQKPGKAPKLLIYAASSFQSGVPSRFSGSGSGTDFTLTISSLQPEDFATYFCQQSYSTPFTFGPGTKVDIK

Output:
1. 91
2. 97

Each of the following entries comes with a recorded value; kindly state Inhibition rate (%) at 7.4 nM for each.
1. 31C12F3 (chimeric antibody purified from hybridoma supernatant) (antibody, V domains shown, also called mAb010) VH: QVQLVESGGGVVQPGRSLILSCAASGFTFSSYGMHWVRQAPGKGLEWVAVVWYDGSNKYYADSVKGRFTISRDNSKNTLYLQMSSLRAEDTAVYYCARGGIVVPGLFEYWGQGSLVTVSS VL: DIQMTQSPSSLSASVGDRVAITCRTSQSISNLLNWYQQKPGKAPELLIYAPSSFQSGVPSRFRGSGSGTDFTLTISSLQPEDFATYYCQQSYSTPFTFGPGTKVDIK
2. 40C4C6 (chimeric antibody purified from hybridoma supernatant) (antibody, V domains shown, also called mAb09; mAb009) VH: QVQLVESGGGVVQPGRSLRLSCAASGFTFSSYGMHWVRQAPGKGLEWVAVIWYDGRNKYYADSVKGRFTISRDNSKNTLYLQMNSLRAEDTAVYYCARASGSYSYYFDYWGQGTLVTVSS VL: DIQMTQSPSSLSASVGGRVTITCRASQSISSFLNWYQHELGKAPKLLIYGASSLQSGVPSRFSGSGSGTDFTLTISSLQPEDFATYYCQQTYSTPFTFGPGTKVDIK

Output:
[89.6, 80.7]
